The reported numbers originate from patent US20250388702A1.

TARGET ENTITY: T1, Human KIR3DL3 (human, UniProt Q8N743 26-410)
T1 construct: also called Killer cell immunoglobulin-like receptor 3DL3
T1 sequence (Q8N743 26-410 H321N limits assumed): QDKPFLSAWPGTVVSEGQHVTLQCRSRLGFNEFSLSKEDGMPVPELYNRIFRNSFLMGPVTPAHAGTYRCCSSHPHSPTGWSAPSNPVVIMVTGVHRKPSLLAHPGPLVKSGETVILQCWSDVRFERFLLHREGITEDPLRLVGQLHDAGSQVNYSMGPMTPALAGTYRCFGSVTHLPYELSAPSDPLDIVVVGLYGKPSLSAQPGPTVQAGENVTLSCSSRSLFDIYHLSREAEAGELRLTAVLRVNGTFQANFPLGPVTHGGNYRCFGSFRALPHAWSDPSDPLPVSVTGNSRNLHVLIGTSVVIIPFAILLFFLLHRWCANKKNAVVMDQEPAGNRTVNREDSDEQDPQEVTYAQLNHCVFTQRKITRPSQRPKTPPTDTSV
PROTOCOL: flow cytometry; blockade of HHLA2-mIgG2a binding to KIR3DL3-transfected 300.19 cells
PROPERTY MEASURED: IC50 (µg/mL)
Express it in µg/mL; write the number only.

Observe how each entry below is paired with its result.
KIR3DL3 mAb 574.2.2D8.6.9 (antibody, IgG2b, V domains shown, Mouse hybridoma antibody, IgG2b; also called AVS-3702) VH: DVQLVESGGGLVQPGGSRKLSCAASGFTFSYFGMHWVRRAPEKGLEWVAFISSDSTTIYYTDTVKGRFTISRDNPKNTLFLQMTSLRSEDTAIYYCARFYDGAMDYWGQGTSVTVST VL: DIVMTQSQKFMSTSVGDRVSITCKASQSVRTAVAWYQQKPGQSPKVLIYLASNRHTGVPDRFTGSGSGTDFTLTISNVQSEDLADYFCLQHWNYPLTFGAGTKLELK    0.21
KIR3DL3 mAb 574.2.1C7.D2.6.5 (antibody, IgG1, V domains shown, Mouse hybridoma antibody, IgG1; only variable domains given; also called AVS-3698) VH: QVQLQQSGAELMKPGASVKISCKATGYTFSNYWIEWIKQRPGHGLEWIGEILPGSGSTNYNEKFKGKATFTAATSSNTAYMQLSSLTSEDSAVYYCARRVPDYYGSRYYFDYWGQGTTLTVSS VL: NIVMTQSPKSMSMSVGERVTLSCKASENVGIYVSWYQQKPEQSPKLLIYGASNRYTGVPDRFTGSGSATDFTLTISSVQAEDLADYHCGQSYNYPFTFGSGTKLEIK    0.32
KIR3DL3 mAb 574.2.2H1.11.6 (antibody, IgG2b, V domains shown, Mouse hybridoma antibody, IgG2b; only variable domains given; also called AVS-3704) VH: DVQLVESGGGLVQPGGSRKLSCAASGFTFSYFGMHWVRRAPEKGLEWVAFISSDSTTIYYTDTVKGRFTISRDNPKNTLFLQMTSLRSEDTAIYYCARFYDGAMDYWGQGTSVTVST VL: DIVMTQSQKFMSTSVGDRVSITCKASQSVRTAVAWYQQKPGQSPKVLIYLASNRHTGVPDRFTGSGSGTDFTLTISNVQSEDLADYFCLQHWNYPLTFGAGTKLELK    0.19

Measured IC50, KIR3DL3 mAb 574.2.2F11.2.7.4 (antibody, IgG2b, V domains shown, Parental mouse hybridoma antibody, IgG2b; only variable domains given; also called AVS-3703) VH: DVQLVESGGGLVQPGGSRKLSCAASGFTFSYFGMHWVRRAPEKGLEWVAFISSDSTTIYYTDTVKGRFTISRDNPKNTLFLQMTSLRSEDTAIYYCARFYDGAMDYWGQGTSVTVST VL: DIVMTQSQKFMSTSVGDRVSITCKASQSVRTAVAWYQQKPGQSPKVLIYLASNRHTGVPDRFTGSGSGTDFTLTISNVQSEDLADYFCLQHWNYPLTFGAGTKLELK : 0.16
